measured_target: IGF-1R (Homo sapiens, UniProt P08069)
Sequence (P08069 31-1367, species assumed): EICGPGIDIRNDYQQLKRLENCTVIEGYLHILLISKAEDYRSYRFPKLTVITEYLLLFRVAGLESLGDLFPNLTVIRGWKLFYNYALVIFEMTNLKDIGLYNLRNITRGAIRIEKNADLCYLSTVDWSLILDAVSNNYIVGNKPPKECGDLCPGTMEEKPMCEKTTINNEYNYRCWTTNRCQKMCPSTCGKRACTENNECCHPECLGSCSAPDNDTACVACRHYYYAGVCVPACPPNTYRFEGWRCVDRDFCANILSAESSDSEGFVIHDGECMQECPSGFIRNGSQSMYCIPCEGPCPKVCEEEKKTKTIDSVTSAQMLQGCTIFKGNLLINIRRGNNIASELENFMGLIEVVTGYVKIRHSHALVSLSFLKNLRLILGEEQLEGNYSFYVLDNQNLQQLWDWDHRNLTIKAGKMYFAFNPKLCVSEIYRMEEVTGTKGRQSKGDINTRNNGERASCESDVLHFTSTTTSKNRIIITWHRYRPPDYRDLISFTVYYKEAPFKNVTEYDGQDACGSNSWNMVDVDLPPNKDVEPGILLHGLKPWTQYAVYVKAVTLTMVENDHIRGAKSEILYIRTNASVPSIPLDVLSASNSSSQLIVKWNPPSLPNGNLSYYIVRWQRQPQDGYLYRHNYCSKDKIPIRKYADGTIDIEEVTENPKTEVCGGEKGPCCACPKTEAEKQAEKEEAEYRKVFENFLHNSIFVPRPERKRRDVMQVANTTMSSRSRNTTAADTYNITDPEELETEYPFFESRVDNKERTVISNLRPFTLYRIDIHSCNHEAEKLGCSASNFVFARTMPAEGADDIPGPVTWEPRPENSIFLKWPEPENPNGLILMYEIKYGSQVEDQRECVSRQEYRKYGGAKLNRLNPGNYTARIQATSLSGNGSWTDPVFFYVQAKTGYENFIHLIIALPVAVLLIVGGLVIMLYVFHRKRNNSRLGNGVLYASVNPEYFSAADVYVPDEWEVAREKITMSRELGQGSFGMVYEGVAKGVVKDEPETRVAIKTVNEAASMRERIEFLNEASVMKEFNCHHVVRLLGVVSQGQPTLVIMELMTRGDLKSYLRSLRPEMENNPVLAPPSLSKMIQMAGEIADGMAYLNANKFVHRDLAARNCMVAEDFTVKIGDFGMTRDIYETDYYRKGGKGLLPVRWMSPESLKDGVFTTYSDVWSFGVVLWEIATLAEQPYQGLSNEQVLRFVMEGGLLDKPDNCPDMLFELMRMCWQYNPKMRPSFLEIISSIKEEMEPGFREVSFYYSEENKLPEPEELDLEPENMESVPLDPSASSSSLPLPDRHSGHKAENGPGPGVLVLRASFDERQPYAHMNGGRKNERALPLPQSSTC
method_description: IGF-I receptor ELISA in 3T3/IGF-1R cells
test_settings: 50% inhibition of PTK activity over control
measurement_kind: IC50

>  <smiles_record>
Cc1c[nH]c(C=C2C(=O)Nc3ccccc32)c1CCC(=O)O

>  <IC50>
> 100 µM

$$$$
>  <smiles_record>
COC(=O)CCc1c[nH]c(C=C2C(=O)Nc3ccccc32)c1C

>  <IC50>
> 100 µM

$$$$
>  <smiles_record>
CCOC(=O)c1c(C)[nH]c(C=C2C(=O)Nc3ccccc32)c1C

>  <IC50>
> 100 µM

$$$$
>  <smiles_record>
CC(=O)c1[nH]c(C=C2C(=O)Nc3ccccc32)c(C)c1C

>  <IC50>
> 100 µM

$$$$

Hello, I would appreciate it if you could give IC50 for each entry below.
1. COC(=O)Cc1c(Cl)[nH]c(C=C2C(=O)Nc3ccccc32)c1C(=O)OC
2. CCOC(=O)c1c(C)[nH]c(C=C2C(=O)Nc3ccc(Br)cc32)c1C

## Output
1: > 50 µM; 2: > 100 µM
